testDescription: MTT cytotoxicity test on reconstituted 3D epidermis
Type: cell-based
measurementSetup: human, SLS 0.25% for 60 minutes, positive control, read-out: % average cell viability (ds)
readoutKind: viability at 1 h (%)
Numbers only, in %.

Just so you know, measured viability at 1 h for CCCCCCCCCCCCOS(=O)(=O)[O-].[Na+] [SLS, sodium lauryl sulphate, reference compound] came out at 50

----------
testDescription: MTT cytotoxicity test on reconstituted 3D epidermis
Assay type: cell-based
measurementSetup: human, sample 0.25%, 24 hours, after 60 minutes pre-treatment with SLS 0.25%, read-out: % average cell viability (ds)
readoutKind: viability at 24 h (%)
Answers are plain numbers, in %.

The molecule listed as COc1cc(C[C@H]2C(=O)OC[C@@H]2[C@H](O)c2ccc(O)c(OC)c2)ccc1O [HMR, 7-hydroxymatairesinol] has a reported viability at 24 h of 55.9

----------
testDescription: MTT cytotoxicity test on reconstituted 3D epidermis
Type: cell-based
measurementSetup: human, positive control (SLS 0.25%), test acceptability table
readoutKind: viability (%)
Numbers only, in %.

# molecule CCCCCCCCCCCCOS(=O)(=O)[O-].[Na+] [SLS, sodium lauryl sulphate, reference compound] ; its viability = 50

----------
testDescription: MTT cytotoxicity test on reconstituted 3D epidermis
Assay type: cell-based
measurementSetup: human, sample 0.25% in phosphate buffer alone, 24 hours exposure, read-out: % average cell viability (ds)
readoutKind: viability at 24 h (%)
One number for each entry, in %.

Value of measured viability at 24 h for the entry COc1cc(C[C@H]2C(=O)OC[C@@H]2[C@H](O)c2ccc(O)c(OC)c2)ccc1O [HMR, 7-hydroxymatairesinol] : 78.2
